The values you see were collected from PubChem BioAssay (NCI).

- Tested on: HL-60(TB) leukemia
- ASSAY_EXPLANATION: NCI-60 one-dose screen, 48 h (100 = growth as untreated, 0 = no growth, -100 = all killed)
- TEST_SETTINGS: 10 µM unless noted
Compounds without any hit were thinned out: in the full panel of roughly 83,000, 20% have a hit. Active and inactive are the calls of the source. Rule for the calls: active = growth percent below 10; inactive = the rest.
RECORDED_METRIC: growth

Go through the items and report each one's growth.
1. C[C@@H](C[C@H](CCO)c1cc(C(F)(F)F)cc(C(F)(F)F)c1)c1ccc2ccccc2c1
2. COC(=O)/C=C1/SC(=Nc2ccc([N+](=O)[O-])cc2)N(CCc2c[nH]c3ccc(O)cc23)C1=O
3. CC(=O)Nc1nc2c(s1)CCc1c-2cn(S(=O)(=O)c2ccccc2)c1-c1ccccc1
4. Nc1nc(-c2ccc(Cl)cc2)cc(-c2cc3ccccc3oc2=O)n1
5. CS(=O)(=O)c1nccc(-c2c(-c3cccc(OCc4ccccc4)c3)nc3sccn23)n1

Result block:
["93.5% (inactive)", "32.2% (inactive)", "71% (inactive)", "125% (inactive)", "82.8% (inactive)"]

###

- System: T-47D breast
- ASSAY_EXPLANATION: NCI-60 one-dose screen, 48 h (100 = growth as untreated, 0 = no growth, -100 = all killed)
- TEST_SETTINGS: 10 µM unless noted
The panel holds about 83,000 compounds, 20% with a hit somewhere; the sample as a whole holds those more often.
Provide the reported growth of each item.
One number for each entry, in %.

Known results for molecules:
MOLECULE: CC12CCC(=O)C=C1C(O)CC1C2CCC2(C)C(O)CCC12 (stereo not given)
growth, %: 112
//
MOLECULE: COc1ccc(CN2CCN(Cc3ccccc3)CC2)c(O)c1
growth, %: 84.7
//
MOLECULE: CC1(C)N=C(N)N=C(N)N1c1cccc(C(=O)Nc2cccc(S(=O)(=O)F)c2)c1
growth, %: 84
//
MOLECULE: Cc1cccc(N=C2c3cc([N+](=O)[O-])ccc3-c3c2cc([N+](=O)[O-])cc3[N+](=O)[O-])c1
growth, %: -25.1

Query block: Look up growth for this molecule: O=C(O)C1[O][Sb][O]C1C(=O)O (stereo not given)
Result block: 89.3

###

So I've got a bunch of compounds here, and I need their growth values.
- Test system: SF-539 CNS
- ASSAY_EXPLANATION: NCI-60 one-dose screen, 48 h (100 = growth as untreated, 0 = no growth, -100 = all killed)
- TEST_SETTINGS: 10 µM unless noted
The panel holds about 83,000 compounds, 20% with a hit somewhere; the sample as a whole holds those more often.
Answers are plain numbers, in %.

COMPOUND: CC(C)(NC(=O)c1nn(CCCCCF)c2ccccc12)c1ccccc1
TARGET_DESC: SF-539 CNS
growth / %: 100
--
COMPOUND: [O]=[Sn]([CH]1CCCCC1)[CH]1CCCCC1
TARGET_DESC: SF-539 CNS
growth / %: -92.5

Field: growth. Fill in for each record below.
1. FC(F)=C(F)c1ccccc1
2. O=C1NC(=O)C(O)(C2(O)C(=O)NC(=O)NC2=O)C(=O)N1

Result block:
[103, 88]

###

- Tested on: HL-60(TB) leukemia
- ASSAY_EXPLANATION: NCI-60 one-dose screen, 48 h (100 = growth as untreated, 0 = no growth, -100 = all killed)
- TEST_SETTINGS: 10 µM unless noted
Compounds without any hit were thinned out: in the full panel of roughly 83,000, 20% have a hit. Activity calls are given as the source filed them. The calls were made as follows: active = growth percent below 10; inactive = the rest.
RECORDED_METRIC: growth

Known results for molecules:
MOLECULE: Cc1nc(Nc2ccc(NC(=S)Nc3ccccc3)cc2)nc2nc(Nc3cccc(Cl)c3)[nH]c(=O)c12
TARGET_DESC: HL-60(TB) leukemia
growth: 57.1% (inactive)
//
MOLECULE: OCC12CCCC(CO)(COC1)C2O (centres undefined)
TARGET_DESC: HL-60(TB) leukemia
growth: 118% (inactive)
//
MOLECULE: O=[N+]([O-])c1cc(C(F)(F)F)ccc1Sc1ccc(C(F)(F)F)cc1[N+](=O)[O-]
TARGET_DESC: HL-60(TB) leukemia
growth: 8.05% (active)

For each entry beneath this line, provide reported growth.
1. COc1ccc2ccccc2c1/C=N/N1CCCCC1
2. CC[N+](CC)=c1ccc2nc3c(cc(N)c4ccccc43)oc-2c1
3. O=C1C=CC(=Nc2cc(Br)c(O)c(Br)c2)C=C1
4. C=C1c2nc3ccccc3n2C=C(c2cccc(Cl)c2)N1Cc1ccc(OC)cc1
5. COc1ccc2nc3cc(Cl)ccc3c(N3CCN(c4nccc(Nc5ccc(Cl)cc5)n4)CC3)c2c1

Result block:
1. 94.3% (inactive)
2. -55.6% (active)
3. 29.9% (inactive)
4. -25% (active)
5. 48% (inactive)

###

- System: NCI-H460 lung
- ASSAY_EXPLANATION: NCI-60 one-dose screen, 48 h
- TEST_SETTINGS: 10 µM unless noted
Compounds without any hit were thinned out: in the full panel of roughly 83,000, 20% have a hit. Activity calls are given as the source filed them. How the source made its calls: active means growth percent below 10; inactive means the rest.
Assign a class; possible classes are label 1 for active, label 0 for inactive

Reference set, count: 6
COMPOUND: c1cnc2c(c1)ccc1ncccc12
TARGET_DESC: NCI-H460 lung
ASSIGNED_CATEGORY: label 0

COMPOUND: CC(N)Cc1ccc(O)cc1 (centres undefined)
TARGET_DESC: NCI-H460 lung
ASSIGNED_CATEGORY: label 0

COMPOUND: CNc1ccc(C(=O)CC(O)CCC(C)C2OC(=O)CC(O)CC(=O)CC(O)CC(O)CC(O)CC(O)CC3(O)CC(O)C(C(=O)OC)C(CC(O[C@@H]4O[C@H](C)[C@@H](O)[C@H](N)[C@@H]4O)/C=C/C=C/C=C/C=C/C=C/C=C/C=C/C2C)O3)cc1 (some centres undefined)
TARGET_DESC: NCI-H460 lung
ASSIGNED_CATEGORY: label 1

COMPOUND: CC(=O)C1C(=O)N(C)C(=O)N(C)C1=O
TARGET_DESC: NCI-H460 lung
ASSIGNED_CATEGORY: label 0

COMPOUND: COc1cccc2c1C(=O)c1c(O)c3c(c(O)c1C2=O)CC(O)(/C(C)=N/NC(=O)CCC(=O)N/N=C(\C)C1(O)Cc2c(O)c4c(c(O)c2C(OC2CC(N)C(O)C(C)O2)C1)C(=O)c1c(OC)cccc1C4=O)CC3OC1CC(N)C(O)C(C)O1 (centres undefined)
TARGET_DESC: NCI-H460 lung
ASSIGNED_CATEGORY: label 1

COMPOUND: COc1ccc(NP2(=O)OCC(C)(N)CO2)cc1 (centres undefined)
TARGET_DESC: NCI-H460 lung
ASSIGNED_CATEGORY: label 0

Query block: Returns: the outcome recorded for `CCC[CH2][Sn]([CH2]CCC)([CH2]CCC)[O]C(=O)c1ccc(Cl)cc1Cl` in this assay.
Result block: label 1

###

- Tested on: HL-60(TB) leukemia
- ASSAY_EXPLANATION: NCI-60 one-dose screen, 48 h (100 = growth as untreated, 0 = no growth, -100 = all killed)
- TEST_SETTINGS: 10 µM unless noted
This is part of a sample that, as a whole, favours compounds with a hit. Of some 83,000 tested, about 20% had one in any assay.
Outcome label depends on growth relative to 70%: at/above gives rule met, below gives rule not met.

Before answering, review these 5 worked examples.
COMPOUND: COc1cc2oc(-c3cccc(C(=O)Nc4ccccc4)c3)cc(=O)c2c(O)c1OC
ASSIGNED_CATEGORY: rule met
//
COMPOUND: CN1CCN(CCCOc2cccc3nc(Nc4ccc(F)c(F)c4)ccc23)CC1
ASSIGNED_CATEGORY: rule not met
//
COMPOUND: COc1ccc(C(=O)CSc2nc(-c3cc(OC)ccc3OC)cc(-c3ccc(Cl)cc3)c2C#N)cc1
ASSIGNED_CATEGORY: rule met
//
COMPOUND: CC(C)(C)[Si](C)(C)OC1[C@@H](O[Si](C)(C)C(C)(C)C)[C@@H](CNC(=O)NC(=O)CF)O[C@H]1n1cnc2c(NC(=O)Nc3ccccc3)ncnc21 (stereo not given in full)
ASSIGNED_CATEGORY: rule not met
//
COMPOUND: c1ccc(-c2c(-c3ccccc3)[n+](Cc3ccc4ccccc4c3)c(-c3cccc4ccccc34)n2Cc2ccc3ccccc3c2)cc1
ASSIGNED_CATEGORY: rule not met

Query block: Quick check: does `NC(=S)N/N=C(/c1cccs1)C1CC1` have growth greater than or equal to 70%?
Result block: rule met

Query block: Follow-up entry: `O=c1[nH]c(N2CCOCC2)nc2scc(-c3ccccc3)c12`
Result block: rule met

Query block: Can you check `CCCCc1ccc(NC(=O)N(CCCl)N=O)cc1` next?
Result block: rule met

Query block: Try the compound Cc1ccccc1N=C(N)Nc1ccccc1C (tested in a mixture with another compound)
Result block: rule not met

Query block: For `COc1cccc(N2CCN(c3cccc(C)n3)CC2)c1` then?
Result block: rule met
